# testedSystem: Myeloperoxidase (MPO) (Homo sapiens)
# Sequence (P05164 165-273 limits assumed): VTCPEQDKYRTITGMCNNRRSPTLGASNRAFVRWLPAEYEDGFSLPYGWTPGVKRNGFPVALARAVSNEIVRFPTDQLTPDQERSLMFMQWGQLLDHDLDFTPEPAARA
# Sequence (P05164 279-745 limits assumed): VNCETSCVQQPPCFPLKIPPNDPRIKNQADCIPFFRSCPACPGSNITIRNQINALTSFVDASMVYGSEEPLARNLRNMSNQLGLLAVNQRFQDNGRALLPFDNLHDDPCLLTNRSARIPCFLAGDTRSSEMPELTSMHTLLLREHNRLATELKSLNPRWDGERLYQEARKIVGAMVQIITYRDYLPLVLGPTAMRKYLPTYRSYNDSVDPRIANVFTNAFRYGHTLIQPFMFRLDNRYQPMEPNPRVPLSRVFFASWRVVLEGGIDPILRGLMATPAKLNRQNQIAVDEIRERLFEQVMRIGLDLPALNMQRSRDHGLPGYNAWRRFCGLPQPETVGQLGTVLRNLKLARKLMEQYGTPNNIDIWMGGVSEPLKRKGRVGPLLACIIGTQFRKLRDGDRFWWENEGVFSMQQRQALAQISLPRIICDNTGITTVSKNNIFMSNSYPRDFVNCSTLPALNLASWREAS
# runDescription: MPO fluorescence stopped flow assay
# measurementSetup: Ki = k−3/k+3, DynaFit 3
propertyName: Ki (µM)

INSERT INTO assay_data (molecule, testedsystem, reportedmeasurement) VALUES
  ('[N-]=[N+]=[N-].[Na+] [NaN3, sodium azide, reference compound]', 'Myeloperoxidase (MPO) (Homo sapiens)', 0.84);

###

Listed here: items and their measured k+3.
# testedSystem: Myeloperoxidase (MPO) (Homo sapiens)
# runDescription: MPO fluorescence stopped flow assay
# measurementSetup: 1 or 2-step slow tight-binding fit, DynaFit 3; fixed k+1 = 10 μM^−1s^−1, k−1 = 80 s^−1, k+2 = 224 s^−1; pH 5.6, 25°C
propertyName: k+3

INSERT INTO results (compound, testedsystem, reportedmeasurement) VALUES
  ('NNC(=O)c1ccccc1N [2-ABAH, 2-aminobenzoic acid hydrazide]', 'Myeloperoxidase (MPO) (Homo sapiens)', '0.10 ± 0.0014 µM⁻¹ s⁻¹'),
  ('NNC(=O)c1ccncc1 [Isoniazid, isonicotinylhydrazine, reference compound]', 'Myeloperoxidase (MPO) (Homo sapiens)', '0.0011 ± 7.31E-06 μM^−1s^−1'),
  ('NNC(=O)c1ccc(C(F)(F)F)cc1', 'Myeloperoxidase (MPO) (Homo sapiens)', '0.0013 ± 1.36E-05 μM^−1s^−1'),
  ('NNC(=O)c1ccc(F)cc1 [4-FBAH, 4-fluorobenzoic acid hydrazide]', 'Myeloperoxidase (MPO) (Homo sapiens)', '0.0075 ± 4.93E-05 μM^−1s^−1'),
  ('NNC(=O)c1ccccc1 [BAH, benzoic acid hydrazide]', 'Myeloperoxidase (MPO) (Homo sapiens)', '0.0098 ± 5.47E-05 μM^−1s^−1');
